Assignment: determine reported log10 of IC50 for the given compounds.
- SYSTEM NAME: human DGKα (Homo sapiens (Human), UniProt P23743)
- Sequence (P23743 whole entry, looked up): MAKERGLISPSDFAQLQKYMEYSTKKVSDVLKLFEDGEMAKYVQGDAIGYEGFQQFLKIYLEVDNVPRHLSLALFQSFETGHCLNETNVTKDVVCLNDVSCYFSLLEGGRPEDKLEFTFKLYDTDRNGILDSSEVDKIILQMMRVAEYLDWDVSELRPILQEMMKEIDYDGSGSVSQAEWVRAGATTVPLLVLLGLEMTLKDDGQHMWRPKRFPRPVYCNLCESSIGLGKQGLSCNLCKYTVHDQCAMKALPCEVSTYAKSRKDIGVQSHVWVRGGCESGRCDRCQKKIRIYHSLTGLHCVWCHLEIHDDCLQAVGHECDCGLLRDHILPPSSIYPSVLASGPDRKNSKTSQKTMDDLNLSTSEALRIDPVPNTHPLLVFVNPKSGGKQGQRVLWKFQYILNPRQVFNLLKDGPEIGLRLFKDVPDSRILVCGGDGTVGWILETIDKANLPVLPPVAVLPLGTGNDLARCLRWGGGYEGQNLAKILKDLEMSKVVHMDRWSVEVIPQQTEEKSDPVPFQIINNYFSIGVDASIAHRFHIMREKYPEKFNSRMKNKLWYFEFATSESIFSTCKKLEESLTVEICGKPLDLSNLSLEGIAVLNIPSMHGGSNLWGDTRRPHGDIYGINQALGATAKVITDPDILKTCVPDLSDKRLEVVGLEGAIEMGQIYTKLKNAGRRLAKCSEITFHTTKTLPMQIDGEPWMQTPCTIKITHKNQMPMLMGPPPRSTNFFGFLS
- ASSAY: DGKα ADPGLO assay (detergent/lipid micelle substrate)
- Format: biochemical
- ASSAY SETUP: truncated DGK alpha; read-out: DGK alpha ADPGLO (Truncated) IC50
Log scale reminder: IC50 in nM, then log10 taken.

Hello, I am looking for reported log10 of IC50 with human DGKα (Homo sapiens (Human), UniProt P23743) for CC[C@H]1CN(C(C)c2ccc(OC(C)(C)COC)cc2)[C@H](CC)CN1c1nc(=O)n(C)c2ccc(C#N)nc12 (stereo partly shown) [Example 188] . Could you help?
1.15

Hello, I am looking for reported log10 of IC50 with human DGKα (Homo sapiens (Human), UniProt P23743) for CCC(c1ccc(OC)cc1)N1C[C@H](CC)N(c2nc(=O)n(C)c3ccc(C#N)nc23)C[C@H]1CC (stereo partly shown) [Example 213] . Could you help?
1.77

Hello, I am looking for reported log10 of IC50 with human DGKα (Homo sapiens (Human), UniProt P23743) for CCC(c1ccc(C(C)(C)C#N)cc1)N1C[C@H](CC)N(c2nc(=O)n(C)c3ccc(C#N)nc23)C[C@H]1CC (stereo partly shown) [Example 251] . Could you help?
1.53

Hello, I am looking for reported log10 of IC50 with human DGKα (Homo sapiens (Human), UniProt P23743) for CC[C@H]1CN(C(C)c2ccc(CN3C[C@@H](C)O[C@@H](C)C3)cc2)[C@H](CC)CN1c1nc(=O)n(C)c2ccc(C#N)nc12 (stereo partly shown) [Example 292] . Could you help?
2.32

Hello, I am looking for reported log10 of IC50 with human DGKα (Homo sapiens (Human), UniProt P23743) for [2H]C([2H])([2H])Oc1ccc(C(CC)N2C[C@H](CC)N(c3nc(=O)n(C)c4ccc(C#N)nc34)C[C@H]2CC)cc1 (single isomer, unassigned) [Example 208] . Could you help?
1.40

Hello, I am looking for reported log10 of IC50 with human DGKα (Homo sapiens (Human), UniProt P23743) for CC[C@H]1CN(C(C)c2ccc(C3(C)CC3)cc2)[C@H](CC)CN1c1nc(=O)n(C)c2ccc(C#N)nc12 (stereo partly shown) . Could you help?
1.89

Hello, I am looking for reported log10 of IC50 with human DGKα (Homo sapiens (Human), UniProt P23743) for CCC(c1ccc(OCC2CC2)cc1)N1C[C@H](CC)N(c2nc(=O)n(C)c3ccc(C#N)nc23)C[C@H]1CC (stereo partly shown) [Example 217] . Could you help?
3.22

Hello, I am looking for reported log10 of IC50 with human DGKα (Homo sapiens (Human), UniProt P23743) for CC[C@@H]1CN(c2nc(=O)n(C)c3ccc(C#N)nc23)[C@@H](C)CN1C(c1ccc(F)cc1)c1nc(C2CC2)no1 (stereo partly shown) [Example 112] . Could you help?
1.04

Hello, I am looking for reported log10 of IC50 with human DGKα (Homo sapiens (Human), UniProt P23743) for CC[C@H]1CN(C(C)c2cccc(OC(F)(F)F)n2)[C@H](CC)CN1c1nc(=O)n(C)c2ccc(C#N)nc12 (stereo partly shown) [Example 245] . Could you help?
1.26

Hello, I am looking for reported log10 of IC50 with human DGKα (Homo sapiens (Human), UniProt P23743) for CC[C@@H]1CN(c2nc(=O)n(C)c3ccc(C#N)nc23)[C@@H](CC)CN1Cc1ccc(C2CC2)cc1F . Could you help?
2.41

Hello, I am looking for reported log10 of IC50 with human DGKα (Homo sapiens (Human), UniProt P23743) for CC[C@H]1CN(C(C)c2ccc(CN3CCOC(C)(C)C3)cc2)[C@H](CC)CN1c1nc(=O)n(C)c2ccc(C#N)nc12 (stereo partly shown) [Example 275] . Could you help?
2.72

Hello, I am looking for reported log10 of IC50 with human DGKα (Homo sapiens (Human), UniProt P23743) for CCC(c1ccc(OC2CC2)cc1)N1C[C@H](CC)N(c2nc(=O)n(C)c3ccc(C#N)nc23)C[C@H]1CC (stereo partly shown) [Example 256] . Could you help?
3.18

Hello, I am looking for reported log10 of IC50 with human DGKα (Homo sapiens (Human), UniProt P23743) for CC[C@H]1CN(C(C)c2ccc(CN3CCCCC3)cc2)[C@H](CC)CN1c1nc(=O)n(C)c2ccc(C#N)nc12 (stereo partly shown) [Example 281] . Could you help?
3.86
